Assign kon to each entry below.
target: T1, human PD-L1-his taq protein (human, UniProt Q9NZQ7 19-239, limits assumed); assay: SPR Biacore T200, antibody captured, PD-L1-his injected
T1 construct: also called recombinant PD-L1 protein; recombinant human PD-L1; not shown: his tag
T1 sequence (Q9NZQ7 19-239 limits assumed): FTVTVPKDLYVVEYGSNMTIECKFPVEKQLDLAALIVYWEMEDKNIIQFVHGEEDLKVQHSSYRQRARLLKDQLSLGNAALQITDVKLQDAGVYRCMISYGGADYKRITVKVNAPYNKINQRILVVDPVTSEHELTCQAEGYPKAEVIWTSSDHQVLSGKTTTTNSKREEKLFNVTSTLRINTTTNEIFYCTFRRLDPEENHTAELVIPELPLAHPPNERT
Express the result in M⁻¹ s⁻¹ but write the number alone.

# input Entry Hu1210-41 (antibody, V domains shown, Hu1210 VH.4d x Vk.1; human gamma 1 / kappa constant domains; also called H12; Hu1210 VH.4d x Hu1210 Vk.1) VH: EVQLVESGGGLVQPGGSLRLSCAASGFTFSSYDMSWVRQAPGKSLEWVATISDAGGYIYYSDSVKGRFTISRDNAKNSLYLQMNSLRDEDTAVYICAREFGKRYALDYWGQGTTVTVSS VL: DIQMTQSPSSLSASVGDRVTITCKASQDVTPAVAWYQQKPGKAPKLLIYSTSSRYTGVPSRFSGSGSGTDFTFTISSLQPEDIATYYCQQHYTTPLTFGQGTKLEIK : reported kon = ?
# output 91700

# input Entry H1210 chimera (antibody, V domains shown, also called chimeric antibody) VH: EVKLVESGGDLVKPGGSLKLSCAASGFTFSSYDMSWVRQTPEKSLEWVATISDGGGYIYYSDSVKGRFTISRDNAKNNLYLQMSSLRSEDTALYICAREFGKRYALDYWGQGTSVTVSS VL: DIVMTQSHKFMSTSVGDRVSISCKASQDVTPAVAWYQQKPGQSPKLLIYSTSSRYTGVPDRFTGSGSGTDFTFTISSVQAEDLAVYYCQQHYTTPLTFGAGTKLELK : reported kon = ?
# output 124000

# input Entry Hu1210-40 (antibody, V domains shown, Hu1210 VH.4c x Vk.1; human gamma 1 / kappa constant domains) VH: EVQLVESGGGLVQPGGSLRLSCAASGFTFSSYDMSWVRQAPGKSLEWVATISEGGGYIYYSDSVKGRFTISRDNAKNSLYLQMNSLRDEDTAVYICAREFGKRYALDYWGQGTTVTVSS VL: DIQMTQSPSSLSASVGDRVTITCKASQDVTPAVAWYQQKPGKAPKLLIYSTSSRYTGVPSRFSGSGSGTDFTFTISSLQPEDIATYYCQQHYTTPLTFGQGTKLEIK : reported kon = ?
# output 87700
